Value source: ChEMBL document CHEMBL4813987

PROTOCOL_NOTES: Hemolytic activity in human RBC incubated for 4 hrs by microscopic analysis relative to control
Type: ADME, cell-based, Erythrocyte
COND: red blood cells (erythrocytes), read-out: Activity
RECORDED_METRIC: hemolysis at 4 h

Incoming: Which hemolysis at 4 h is reported for this compound? COC(=O)CO/N=C(\CN1CCN(c2cc3c(cc2F)c(=O)c(C(=O)O)cn3C2CC2)CC1)c1nccs1
Outgoing: < 3%

* * *

# MIC listing for each entry below
Tested on: Staphylococcus aureus
PROTOCOL_NOTES: Antibacterial activity against Staphylococcus aureus assessed as reduction in microbial growth by two fold microdilution method
Assay type: functional
Write the value in µg/mL as a bare number.

>  <CPD_SMILES>
CCn1cc(C(=O)O)c(=O)c2cc(F)c(N3CCN(C/C(=N\OC(C)(C)C)c4nccs4)CC3)cc21

>  <MIC, µg/mL>
0.25

$$$$
>  <CPD_SMILES>
C=CCO/N=C(\CN1CCN(c2cc3c(cc2F)c(=O)c(C(=O)O)cn3C2CC2)CC1)c1nccs1

>  <MIC, µg/mL>
0.25

$$$$
>  <CPD_SMILES>
CC(C)(C)O/N=C(\CN1CCN(c2c(F)cc3c(=O)c(C(=O)O)cn(C4CC4)c3c2Cl)CC1)c1nccs1

>  <MIC, µg/mL>
0.25

$$$$
>  <CPD_SMILES>
CCn1cc(C(=O)O)c(=O)c2cc(F)c(N3CCN(C/C(=N\OC)c4nccs4)CC3)cc21

>  <MIC, µg/mL>
2

$$$$
>  <CPD_SMILES>
CCn1cc(C(=O)O)c(=O)c2cc(F)c(N3CCN(CC(=O)c4nccs4)CC3)cc21

>  <MIC, µg/mL>
4

$$$$

Incoming: Report MIC for C=CCO/N=C(\CN1CCN(c2cc3c(cc2F)c(=O)c(C(=O)O)cn3CC)CC1)c1nccs1 please.
Outgoing: 0.25

Incoming: Could you share which MIC value was measured for CCn1cc(C(=O)O)c(=O)c2cc(F)c(N3CCNCC3)cc21 ?
Outgoing: 4

Incoming: Requested field: MIC. Item: CCO/N=C(\CN1CCN(c2cc3c(cc2F)c(=O)c(C(=O)O)cn3CC)CC1)c1nccs1
Outgoing: 8

Incoming: Could you tell me which MIC is on file for CCn1cc(C(=O)O)c(=O)c2cc(F)c(N3CCN(C/C(=N\OCC(=O)OC)c4nccs4)CC3)cc21 ?
Outgoing: 4
